Molecular target: human recombinant wild-type ALK kinase domain (amino acids 1093-1411) (Homo sapiens, UniProt Q9UM73)
Construct: ALK kinase domain (amino acids 1093-1411); made in house
Assay: Wild-type ALK enzyme assay (microfluidic mobility shift)
Format: biochemical
Conditions: WT ALK enzyme assay (Ki), ATP 60 μM, competitive inhibition fit
measurement name: pKi
In plain terms, pKi is the concentration in mol/L turned into minus its base-10 logarithm.

Memo: Cc1cnc2nc3c(n2c1)-c1cnc(N)c(c1)O[C@H](C)c1cc(F)ccc1C(=O)N(C)C3 , reported pKi: 9.85

---

Below, each entry is listed with its recorded Ki.
Biological target: human recombinant L1196M ALK kinase domain (amino acids 1093-1411) (Homo sapiens, UniProt Q9UM73, L1196M)
Construct: ALK kinase domain (amino acids 1093-1411); made in house
Assay: L1196M mutant ALK enzyme assay (microfluidic mobility shift)
Type: biochemical
Conditions: ATP 60 μM, 0.5 nM enzyme, competitive inhibition fit; read-out: L1196M ALK enzyme assay (Ki)
Record the value in nM, omitting the unit from your answer.

Consider the reported Ki for these compounds:
CCn1ncc2c1-c1cnc(N)c(n1)O[C@H](C)c1cc(F)ccc1C(=O)N(C)C2	1.5
CCCn1nnc2c1-c1cnc(N)c(c1)O[C@H](C)c1cc(F)ccc1C(=O)N(C)C2	19
CC1Cc2cc(cnc2N)-c2c(nn(C)c2C#N)CN(C)C(=O)c2ccc(F)cc21 (stereo not drawn) [Example 61]	0.17

Memo: CN1Cc2nn(C)c(C#N)c2-c2cnc(N)c(c2)OC(CF)c2cc(F)ccc2C1=O (single isomer, unassigned) [Example 84] , reported Ki: 90.2

Memo: CC1Oc2cc(cnc2N)-c2ccccc2CN(C)C(=O)c2ccc(F)cc21 (stereo not drawn) , reported Ki: 10
